Parameter PBL IC95: see the listing below.
Test system: HIV
method-summary: HIV infection in cell culture (PBL), microscopic evaluation of syncytia formation
Format: cell-based
applied-conditions: HIV-infected normal human blood lymphocytes (PBL's); suppression of virus-induced syncytia, day 3 to 6 after infection

Consider the following illustrative entries.
# compound, PBL IC95
rows = [
    ("NC(=O)C[C@H](NC(=O)OC1CCS(=O)(=O)C1)C(=O)N[C@@H](Cc1ccccc1)[C@H](O)CN1[C@H](C(F)(F)F)C[C@@H]2CCC[C@@H]21 (stereo partly drawn) [Beispiel 3]", "1,9 x 10^-6 Mol/l"),
    ("NC(=O)C[C@H](NC(=O)O[C@H]1CCOC1)C(=O)N[C@@H](Cc1ccccc1)[C@H](O)CN1[C@H](C(F)(F)F)C[C@@H]2CCC[C@@H]21 [Beispiel 2]", "3,5 x 10^-6 Mol/l"),
]

Give PBL IC95 for the following compound: O=C(N[C@@H](Cc1ccccc1)[C@H](O)CN1[C@H](C(F)(F)F)C[C@@H]2CCC[C@@H]21)O[C@H]1CCOC1 [Beispiel 6]
1,3 x 10^-5 Mol/l
